- SYSTEM_NAME: Vascular endothelial growth factor receptor 1 (Homo sapiens)
- Sequence (P17948 whole entry): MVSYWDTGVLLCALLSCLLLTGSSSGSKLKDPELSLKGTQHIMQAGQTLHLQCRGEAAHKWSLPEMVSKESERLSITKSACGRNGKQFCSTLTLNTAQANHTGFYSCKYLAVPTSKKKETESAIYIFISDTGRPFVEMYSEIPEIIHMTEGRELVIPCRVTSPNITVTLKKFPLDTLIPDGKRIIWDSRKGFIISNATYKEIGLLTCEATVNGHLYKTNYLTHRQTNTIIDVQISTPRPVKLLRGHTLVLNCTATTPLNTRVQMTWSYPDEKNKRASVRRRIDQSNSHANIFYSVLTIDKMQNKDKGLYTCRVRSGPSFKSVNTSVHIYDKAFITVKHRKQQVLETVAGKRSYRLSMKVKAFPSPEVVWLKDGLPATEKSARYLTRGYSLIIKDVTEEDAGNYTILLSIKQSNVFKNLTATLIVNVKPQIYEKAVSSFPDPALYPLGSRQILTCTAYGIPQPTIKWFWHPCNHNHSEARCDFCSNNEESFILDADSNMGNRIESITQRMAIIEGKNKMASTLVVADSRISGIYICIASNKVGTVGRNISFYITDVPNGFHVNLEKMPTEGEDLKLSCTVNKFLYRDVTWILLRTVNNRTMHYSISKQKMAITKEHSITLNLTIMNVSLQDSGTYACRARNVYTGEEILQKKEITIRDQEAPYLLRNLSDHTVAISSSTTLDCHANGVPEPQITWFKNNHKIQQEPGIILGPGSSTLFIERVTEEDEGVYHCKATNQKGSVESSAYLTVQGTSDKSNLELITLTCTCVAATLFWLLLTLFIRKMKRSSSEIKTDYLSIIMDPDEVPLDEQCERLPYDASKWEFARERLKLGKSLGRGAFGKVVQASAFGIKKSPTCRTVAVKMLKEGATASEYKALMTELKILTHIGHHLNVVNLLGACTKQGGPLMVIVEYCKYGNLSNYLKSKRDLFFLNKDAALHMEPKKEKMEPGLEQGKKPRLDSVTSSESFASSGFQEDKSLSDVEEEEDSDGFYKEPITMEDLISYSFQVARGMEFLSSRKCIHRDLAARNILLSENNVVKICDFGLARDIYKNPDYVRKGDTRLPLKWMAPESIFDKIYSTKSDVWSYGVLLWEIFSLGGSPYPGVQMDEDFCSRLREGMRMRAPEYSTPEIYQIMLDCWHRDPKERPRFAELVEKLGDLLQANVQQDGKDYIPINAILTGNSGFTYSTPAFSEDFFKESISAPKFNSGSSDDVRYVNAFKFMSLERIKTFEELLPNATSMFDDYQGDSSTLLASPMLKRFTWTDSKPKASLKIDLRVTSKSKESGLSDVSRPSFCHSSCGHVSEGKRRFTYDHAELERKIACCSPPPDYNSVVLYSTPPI
MEASURE: IC50 (µM)
Answer format: numeric, µM implied, no suffix.

Supply reported IC50 belonging to this compound: CN1C(=O)[C@@H](N2CCc3cn(CC4CCS(=O)(=O)CC4)nc3C2=O)COc2ccccc21 [TP-030n] 1

Output IC50 of CN1C(=O)[C@@H](N2CCc3cn(Cc4ccccc4)nc3C2=O)COc2ccccc21 [TP-030-1] 1

* * *

- SYSTEM_NAME: Microtubule-associated serine/threonine-protein kinase 1 (Homo sapiens, UniProt Q9Y2H9)
- Sequence (Q9Y2H9 whole entry): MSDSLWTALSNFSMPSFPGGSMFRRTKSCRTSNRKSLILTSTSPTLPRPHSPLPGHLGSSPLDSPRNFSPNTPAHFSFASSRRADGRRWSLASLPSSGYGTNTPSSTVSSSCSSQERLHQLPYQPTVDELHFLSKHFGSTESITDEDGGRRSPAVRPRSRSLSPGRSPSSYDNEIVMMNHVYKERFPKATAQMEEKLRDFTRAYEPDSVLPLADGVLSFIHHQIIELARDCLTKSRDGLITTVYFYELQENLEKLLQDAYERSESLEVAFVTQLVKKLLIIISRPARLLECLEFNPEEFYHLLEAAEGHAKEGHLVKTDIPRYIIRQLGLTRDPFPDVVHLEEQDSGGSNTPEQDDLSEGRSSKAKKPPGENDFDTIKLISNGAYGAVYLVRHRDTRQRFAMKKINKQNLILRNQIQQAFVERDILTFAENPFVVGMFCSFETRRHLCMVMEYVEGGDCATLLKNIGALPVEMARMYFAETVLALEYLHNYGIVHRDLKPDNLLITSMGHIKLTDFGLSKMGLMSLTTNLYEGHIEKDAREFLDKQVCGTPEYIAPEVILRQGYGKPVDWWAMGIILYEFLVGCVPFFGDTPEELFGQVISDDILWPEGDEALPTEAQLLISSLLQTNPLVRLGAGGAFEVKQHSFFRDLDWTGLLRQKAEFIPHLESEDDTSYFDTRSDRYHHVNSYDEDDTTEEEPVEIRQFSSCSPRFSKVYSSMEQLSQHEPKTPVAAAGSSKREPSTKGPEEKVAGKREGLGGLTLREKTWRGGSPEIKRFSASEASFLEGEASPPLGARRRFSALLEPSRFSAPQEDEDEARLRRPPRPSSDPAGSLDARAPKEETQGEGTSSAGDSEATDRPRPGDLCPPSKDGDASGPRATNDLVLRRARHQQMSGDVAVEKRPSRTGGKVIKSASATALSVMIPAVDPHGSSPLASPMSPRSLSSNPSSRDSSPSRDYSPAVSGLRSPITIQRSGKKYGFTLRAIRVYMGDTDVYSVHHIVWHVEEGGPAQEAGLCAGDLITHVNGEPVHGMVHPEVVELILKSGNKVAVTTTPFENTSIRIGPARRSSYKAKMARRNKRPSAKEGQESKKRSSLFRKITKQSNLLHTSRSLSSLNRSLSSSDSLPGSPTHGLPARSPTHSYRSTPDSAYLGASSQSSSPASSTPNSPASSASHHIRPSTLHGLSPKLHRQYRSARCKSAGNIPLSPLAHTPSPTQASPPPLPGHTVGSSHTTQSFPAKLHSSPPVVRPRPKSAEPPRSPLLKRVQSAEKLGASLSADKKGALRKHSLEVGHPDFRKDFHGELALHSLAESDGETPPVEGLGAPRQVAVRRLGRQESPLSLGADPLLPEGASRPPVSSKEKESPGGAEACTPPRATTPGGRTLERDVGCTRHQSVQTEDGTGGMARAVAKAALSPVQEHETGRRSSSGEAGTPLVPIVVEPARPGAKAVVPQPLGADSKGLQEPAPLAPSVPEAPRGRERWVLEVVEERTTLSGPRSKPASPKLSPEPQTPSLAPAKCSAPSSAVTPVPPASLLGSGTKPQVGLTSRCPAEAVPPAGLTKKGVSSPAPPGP
- ASSAY_TEXT: MAST1(MAS1LGE5) Takeda global kinase panel
MEASURE: pIC50
Remember the convention: pIC50 equals -log10 of concentration in molar.

For the compound CN1C(=O)[C@@H](N2CCc3cn(Cc4ccccc4)nc3C2=O)COc2ccccc21 , give its reported pIC50. 6.00

State its pIC50: CN1C(=O)[C@@H](N2CCc3cn(CC4CCS(=O)(=O)CC4)nc3C2=O)COc2ccccc21 [TP-030n] 6.00
